B1: TOR1AIP2 (parent)
chain: YTSSQKVSPIQIDGAGRTWQDSDT

Variants of: B1
test-name: protein stability index of a GFP-peptide fusion (GPS, HEK-293T) (PSI 1-6); higher = more stable;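 also: lentivirally expressed fusions sorted by FACS into six bins by GFP to DsRed ratio, PSI derived from sequencing read proportions per bin multiplied by bin number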
assay-setup: c terminus: a fixed tail appended
The entries below come with measured protein stability index values attached.
measured-attribute: protein stability index

>>> val("YTSSQKVSPIQIDGAGRTLQDSDT [W19L]")
4.11
>>> val("YKSSQKVSPIQIDGAGRTWQDSDT [T2K]")
4.83
>>> val("YISSQKVSPIQIDGAGRTWQDSDT [T2I]")
2.58
>>> val("YTSSQKVSPIQIDGAGRTSQDSDT [W19S]")
4.76
>>> val("YASSQKVSPIQIDGAGRTWQDSDT [T2A]")
3.8
>>> val("YTSSQKASPIQIDGAGRTWQDSDT [V7A]")
3.41
>>> val("YTSSQAVSPIQIDGAGRTWQDSDT [K6A]")
3.58
>>> val("YTSPQKVSPIQIDGAGRTWQDSDT [S4P]")
3.18
>>> val("YTSSQKVSPIQIDGAGRTWQQSDT [D21Q]")
2.45
>>> val("YTSSQKVIPIQIDGAGRTWQDSDT [S8I]")
2.35
>>> val("YTESQKVSPIQIDGAGRTWQDSDT [S3E]")
3.87
>>> val("YTSSQKVSQIQIDGAGRTWQDSDT [P9Q]")
3.44
>>> val("YTSLQKVSPIQIDGAGRTWQDSDT [S4L]")
2.84
>>> val("YTSSQKVSPIQIDGAGRTWQDSAT [D23A]")
3.06
>>> val("YTSSQKVSPIQILGAGRTWQDSDT [D13L]")
2.29
>>> val("YTSSQKVSPIQIDGAGRTGQDSDT [W19G]")
3.74
>>> val("YTSSQKVSYIQIDGAGRTWQDSDT [P9Y]")
2.22
>>> val("YHSSQKVSPIQIDGAGRTWQDSDT [T2H]")
2.14
>>> val("YTSSQKVSPQQIDGAGRTWQDSDT [I10Q]")
4
>>> val("YTHSQKVSPIQIDGAGRTWQDSDT [S3H]")
4.38
>>> val("YTSSQKVSPIQIDGAGRTWQDSDD [T24D]")
4.12
>>> val("YTSSQKVSPIQIDGAGRTWQDWDT [S22W]")
2.85
>>> val("YTSSQKVEPIQIDGAGRTWQDSDT [S8E]")
4.47
>>> val("YESSQKVSPIQIDGAGRTWQDSDT [T2E]")
4.74
>>> val("YTSSQKVSPIQIDGLGRTWQDSDT [A15L]")
2.93
>>> val("YTSSQKVSPIQIDGAGRFWQDSDT [T18F]")
1.33
>>> val("YTSSQKVSPIQIDGVGRTWQDSDT [A15V]")
2.82
>>> val("YTSSQHVSPIQIDGAGRTWQDSDT [K6H]")
3.51
>>> val("YTSSQKVSPIQIDVAGRTWQDSDT [G14V]")
2.78
